test: yeast growth modulation, basal conditions, primary screen, YJM789 clinical isolate, OD600, 24 h (AID 1089);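 also: growth of clinical yeast isolate S. cerevisiae YJM 789 seeded 1000 cells per well; test concentration not given here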; settings: S. cerevisiae YJM789 growth, higher = more signal, called active from +8 up or from −8 down
quantity.kind: z-score

>  <compound>
COCCCNC(=O)[C@@]1(c2ccc([N+](=O)[O-])cc2)CC(=O)N(CC23CC4CC(CC(C4)C2)C3)[C@@H]1c1ccc(CO)cc1I

>  <observed.result>
1.01

$$$$
>  <compound>
CC(=O)NCCCC[C@@H]1NC(=O)[C@@H]2C[C@H](C(=O)NCCCCCCN)[C@H](c3cccc(OCCO)c3)N2C1=O

>  <observed.result>
0.119

$$$$
>  <compound>
[N-]=[N+]=Nc1ccccc1C[C@@]1(C(=O)O)N=C(c2ccc(OCCCO)cc2)O[C@@H]1c1ccccc1N=[N+]=[N-]

>  <observed.result>
-1.05

$$$$
>  <compound>
C=C[C@@H](OC)[C@H](OC(=O)Nc1ccc(SC)cc1)c1ccc(OCCO)cc1

>  <observed.result>
0.456

$$$$
>  <compound>
CC1(C)C(=O)C(c2ccccc2)=C2CN3C(=O)N(CCc4ccccc4)C(=O)C3(Cc3ccc(F)cc3)C=C21 (stereo not given)

>  <observed.result>
0.54

$$$$
>  <compound>
COc1ccc(C(=O)Nc2cccc(CN3C(=O)[C@@]4(O[C@@H](CC(=O)N(CCO)Cc5ccccc5)[C@H]([Si](C)(C)c5ccc(OC)cc5)[C@H]4C)c4ccccc43)c2)cc1

>  <observed.result>
-1.42

$$$$
>  <compound>
COc1ccc(C(O)C2C=CC3C(=O)N(c4ccccc4)C(=O)C3N2Nc2ccccc2F)cc1 (stereo not given)

>  <observed.result>
-0.228

$$$$
>  <compound>
C=C(COC)C(=O)CC[C@@H](OC(=O)c1cccnc1)c1ccccc1OCCO

>  <observed.result>
-0.587

$$$$
>  <compound>
CO[C@H]1O[C@H](CO)[C@@H](OC(=O)Nc2ccc(C#N)cc2)[C@@H]2OC(=O)[C@H](Cc3cccc(Br)c3)C/C=C/C[C@@H](Cc3cccc(Br)c3)C(=O)O[C@@H]12

>  <observed.result>
0.471

$$$$
>  <compound>
O=C1C2C=CC(C(O)c3cccc(O)c3)N(Nc3ccccc3)C2C(=O)N1c1ccccc1 (stereo not given)

>  <observed.result>
0.629

$$$$
>  <compound>
COC(=O)[C@@]1(Cc2ccc(F)cc2)[C@H]2c3cc(C(=O)N4CCCC4)n(C)c3C[C@H]2CN1C(=O)c1ccccc1

>  <observed.result>
-0.42

$$$$
>  <compound>
CC(C)C(CO)N1C(=O)[C@@H]2[C@H]3C(=O)OCC=C[C@H]3OC23C=CCN(C(C)(C)C)C(=O)[C@@H]13 (stereo not given in full)

>  <observed.result>
0.027

$$$$
>  <compound>
CC(C)C(=C=CC[C@@H](O)c1cccc(OCCO)c1)C[C@@H](O)COCc1ccccc1

>  <observed.result>
-0.978

$$$$
>  <compound>
CN(C)C(=O)[C@@]1(CCC(=O)OC(C)(C)C)N=C(c2ccc(OCCCO)cc2)O[C@H]1c1ccccc1CN=[N+]=[N-]

>  <observed.result>
-0.142

$$$$
>  <compound>
O=C1O[C@H](c2ccccc2)[C@H](c2ccccc2)N2[C@H]1[C@@H](C(=O)O)[C@]1(C(=O)Nc3ccc(C#CC4(O)CCCCCC4)cc31)[C@H]2c1ccc(O)cc1

>  <observed.result>
-0.386

$$$$

###

biological target: Follistatin (Homo sapiens) (UniProt P19883); assay: follistatin binders on small-molecule microarrays, primary screen, biochemical, small-molecule microarray, 635/667 nm fluorescence (AID 1132); details: FST binding, 635 nm fluorescence, higher = more signal
Sequence (P19883 whole entry, looked up): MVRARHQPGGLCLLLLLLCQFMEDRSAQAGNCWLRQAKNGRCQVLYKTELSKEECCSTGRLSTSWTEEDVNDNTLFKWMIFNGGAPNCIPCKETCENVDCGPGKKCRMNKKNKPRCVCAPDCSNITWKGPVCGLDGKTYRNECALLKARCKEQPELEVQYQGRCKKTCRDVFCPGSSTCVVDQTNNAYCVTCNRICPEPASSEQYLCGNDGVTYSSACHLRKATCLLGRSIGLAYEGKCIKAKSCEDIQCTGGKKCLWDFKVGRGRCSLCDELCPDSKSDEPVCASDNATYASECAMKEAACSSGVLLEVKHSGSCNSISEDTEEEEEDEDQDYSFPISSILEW
quantity.kind: composite z-score

>  <molecule>
C=CCC(OC(C)=O)[C@@H]1[C@@H](N(Cc2ccc(-c3ccccc3)cc2)C(=O)c2ccc(C)cc2)c2cc(OCCCO)ccc2N1C(=O)Cc1ccc2ccccc2c1 (stereo partly drawn)

>  <quantity.kind>
composite z-score

>  <observed.result>
0.37

$$$$
>  <molecule>
C=CCNC(=O)[C@@H]1[C@H]2C(=O)O[C@H](c3ccccc3)[C@H](c3ccccc3)N2[C@H](c2ccc(O)cc2)[C@@]12C(=O)N(C(=O)OCCOC)c1ccc(C#CCCO)cc12

>  <quantity.kind>
composite z-score

>  <observed.result>
1.19

$$$$
>  <molecule>
CCCNC(=O)[C@@]1(Sc2ccc(C)cc2)CC(=O)N(C2CCCCC2)[C@@H]1c1ccc(CO)cc1I

>  <quantity.kind>
composite z-score

>  <observed.result>
-0.182

$$$$
>  <molecule>
CN(C)CCCCCCNC(=O)[C@@H]1C[C@@H]2C(=O)N[C@@H](CCCCN)C(=O)N2[C@@H]1c1ccc(O)cc1

>  <quantity.kind>
composite z-score

>  <observed.result>
1.54

$$$$
>  <molecule>
COCCOC(=O)N1C(=O)[C@@]2(c3cc(C#CCCO)ccc31)[C@H](C(N)=O)[C@H]1C(=O)O[C@H](c3ccccc3)[C@H](c3ccccc3)N1[C@@H]2c1ccc(OCCO)cc1

>  <quantity.kind>
composite z-score

>  <observed.result>
1.09

$$$$
>  <molecule>
O=C1NC(=O)C2C1C=CC(C(O)c1ccccn1)N2Nc1ccc(Cl)cc1Cl (stereo not drawn)

>  <quantity.kind>
composite z-score

>  <observed.result>
0.101

$$$$
>  <molecule>
Nc1cc(Br)ccc1C(=O)O

>  <quantity.kind>
composite z-score

>  <observed.result>
0.181

$$$$
>  <molecule>
[N-]=[N+]=NC[C@H](Cc1ccccc1)NC(=O)c1ccccc1

>  <quantity.kind>
composite z-score

>  <observed.result>
-0.487

$$$$

###

assay: A549 lung cancer cell viability effects, profiling panel, resazurin fluorescence, 24 h, PK04 Diversity Set (AID 1171); details: higher = more signal, called active from +8 up or from −8 down; also: test concentration not given here
Activity calls are given as the source filed them.

>  <compound>
COc1cc(NN2C(C(O)C3CCCCC3)C=CC3C(=O)N(C)C(=O)C32)cc(OC)c1OC (stereo not drawn)

>  <z-score>
-0.825 (inactive)

$$$$
>  <compound>
C=C(/C(=C/C[C@H](OC(=O)c1ccncc1)c1ccccc1OCCO)c1cnc2ccccc2c1)C(C)C

>  <z-score>
1.35 (inactive)

$$$$
>  <compound>
C=C(COC)/C(=C/C[C@@H](OC(C)=O)c1ccc(CO)o1)c1cc(C(=O)OC)ccc1OC

>  <z-score>
0.072 (inactive)

$$$$
>  <compound>
COCCCNC(=O)[C@@H]1c2ccccc2C(=O)N(C2Cc3ccccc3C2)[C@H]1c1ccc(CO)cc1

>  <z-score>
0.58 (inactive)

$$$$
>  <compound>
CCOC(=O)C[C@H]1[C@H](OC(=O)c2ccc(-c3ccccc3)cc2)[C@@H](NC(=O)CC(C)C)c2cc(OCCCO)ccc2N1C(=O)c1ccccc1

>  <z-score>
-0.719 (inactive)

$$$$
>  <compound>
CC(C)C(=C=CC[C@@H](O)c1cccc(OCCO)c1)C[C@@H](O)c1ccccn1

>  <z-score>
1.22 (inactive)

$$$$
>  <compound>
CN1C(=O)[C@@H]2[C@@H](CC(COc3ccccc3)=C([C@H](O)CCc3ccccc3)[C@@H]2CO)C1=O

>  <z-score>
-0.123 (inactive)

$$$$
>  <compound>
C=C(CCCC)/C(=C/C[C@H](OC(C)=O)c1ccc(OCCO)cc1)c1cc(C(=O)OC)ccc1OC

>  <z-score>
1.09 (inactive)

$$$$

###

biological target: Albumin (Bos taurus); assay: bovine serum albumin binders on microarray, profiling panel, artefact control for SMM control protein annotation, biochemical, small-molecule microarray, Alexa647 label, 635/667 nm fluorescence (AID 1118); settings: BSA-A647 binding, fluorescence 635 nm, higher = more signal;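 also: score merges 667 nm emission intensity and signal-to-noise per printed compound spot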

>  <compound>
COCCOC(=O)N1C(=O)[C@@]2(c3cc(C#Cc4ccc(OC)cc4)ccc31)[C@H](c1ccc(OCCO)cc1)N1[C@H](c3ccccc3)[C@H](c3ccccc3)OC(=O)[C@H]1[C@@H]2C(=O)Nc1nc2ccccc2s1

>  <composite z-score>
0.862

$$$$
>  <compound>
C=C(/C(=C/C[C@H](OC(=O)c1ccncc1)c1ccccc1OCCO)c1cnc2ccccc2c1)C(C)C

>  <composite z-score>
0.706

$$$$
>  <compound>
COc1cc(NN2C(C(O)C3CCCCC3)C=CC3C(=O)N(c4ccccc4)C(=O)C32)cc(OC)c1OC (stereo unspecified)

>  <composite z-score>
1.07

$$$$
>  <compound>
Cc1ccccc1C(O)C1C=CC2C(=O)NC(=O)C2N1Nc1ccc(Cl)cc1Cl (stereo unspecified)

>  <composite z-score>
0.709

$$$$
>  <compound>
COCCOC(=O)N1C(=O)[C@@]2(c3ccccc31)[C@H](c1ccccc1OCCO)N1[C@H](c3ccccc3)[C@H](c3ccccc3)OC(=O)[C@H]1[C@@H]2C(=O)N1CCCCCCC1

>  <composite z-score>
-0.0233

$$$$
>  <compound>
C=CCNC(=O)[C@H]1[C@@H]2C(=O)O[C@@H](c3ccccc3)[C@@H](c3ccccc3)N2[C@@H](c2ccc(OCCO)cc2)[C@]12C(=O)N(C(=O)OCCOC)c1ccc(C#Cc3ccc(OC)cc3)cc12

>  <composite z-score>
0.358

$$$$
